- Subject Of Test: Glucagon-like peptide-1 receptor (GLP-1) (Mus musculus, UniProt O35659)
- Construct: mouse GLP-1 receptor-expressed βTC6 cells
- Sequence (O35659 22-463): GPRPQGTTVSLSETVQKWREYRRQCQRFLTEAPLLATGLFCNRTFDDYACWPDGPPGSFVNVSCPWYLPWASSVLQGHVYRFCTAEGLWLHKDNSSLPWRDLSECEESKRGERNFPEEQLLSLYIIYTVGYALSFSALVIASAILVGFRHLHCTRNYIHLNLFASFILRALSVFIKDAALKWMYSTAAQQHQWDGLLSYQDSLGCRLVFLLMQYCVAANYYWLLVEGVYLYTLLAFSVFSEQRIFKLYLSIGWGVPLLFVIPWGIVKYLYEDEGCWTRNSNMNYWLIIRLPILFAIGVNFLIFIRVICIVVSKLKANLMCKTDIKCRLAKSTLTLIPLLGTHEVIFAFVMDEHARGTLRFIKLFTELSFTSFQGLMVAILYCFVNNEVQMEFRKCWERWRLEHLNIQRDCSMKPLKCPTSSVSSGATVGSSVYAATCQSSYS
- Assay Protocol: GLP-1R functional antagonist assay (cAMP, HTRF, βTC6 cells)
- Test Context: antagonist effect; mean ± SD, n = 3
Here, each record is paired with measured IC50 data.
Unit µM implied. Number only.

[
  {
    "Chemical Smiles": "Oc1cc(O)cc(Oc2c(O)cc(O)c3c2Oc2c(O)cc4oc5c(Oc6cc(O)cc(O)c6)c(O)cc(O)c5c4c2O3)c1",
    "Subject Of Test": "Glucagon-like peptide-1 receptor (GLP-1) (Mus musculus, UniProt O35659)",
    "Unit Label": "µM",
    "IC50": 21.6
  }
]

Read the next record carefully.
I would be grateful if you could share the reported IC50 for Oc1cc(O)cc(Oc2c(O)cc(O)c3c2Oc2c(O)cc(Oc4c(O)cc(Oc5c(O)cc(O)c6c5Oc5c(O)cc(O)cc5O6)cc4O)cc2O3)c1 .
47.2
